- System: K1 strain of P. falciparum
- EXPERIMENTAL DETAILS: 48-h [3H]-hypoxanthine incorporation antimalarial sensitivity assay, K1 strain
- Type: cell-based
- CONDITIONS USED: Plasmodium falciparum; K1 strain (CQ resistant) of P. falciparum in vitro; read-out: IC50
Overview of reported pIC50 across a group of molecules:
Keep it numeric: pIC50 is minus log10 of the concentration in mol/L.

C[C@@H]1CCC2[C@@H](C)[C@@H](OCc3ccc(CN4CCN(Cc5ccccc5)CC4)cc3)OC3O[C@@]4(C)CC[C@@H]1[C@]32OO4 (some centres unmarked) [Compound 13e]	8.42

Moving on to the next molecule.
Enquiry: Give pIC50 for CO[C@H]1O[C@@H]2O[C@@]3(C)CC[C@H]4[C@H](C)CC[C@@H]([C@H]1C)[C@@]24OO3 [Artemether, artemether, reference compound]
Return: 8.19

* * *

- Tested on: HB3 strain of P. falciparum
- EXPERIMENTAL DETAILS: 48-h [3H]-hypoxanthine incorporation antimalarial sensitivity assay, HB3 strain
- Type: cell-based
- CONDITIONS USED: Plasmodium falciparum; HB3 strain (sensitive) of P. falciparum in vitro
As shown below, each of these molecules has a reported IC50 value.

CO[C@H]1O[C@@H]2O[C@@]3(C)CC[C@H]4[C@H](C)CC[C@@H]([C@H]1C)[C@@]24OO3 [Artemether, artemether, reference compound]	9.2 nM

Proceeding to the next molecule to report its IC50.
Enquiry: Report IC50, nothing else, for this molecule: C[C@@H]1CCC2[C@@H](C)[C@@H](OCc3ccc(CN4CCN(Cc5ccccc5)CC4)cc3)OC3O[C@@]4(C)CC[C@@H]1[C@]32OO4 (some centres unmarked) [Compound 13e]
Return: 1.8 nM

From: patent US20050148598A1
